Assay: Lower limits of aqueous solubility by nephelometry
Type: physicochemical
Settings: phosphate-buffered saline with 0.005% (v/v) P20 and 5% DMSO, aqueous with cosolvent or surfactant or cyclodextrin, kinetic from dmso stock, 0.005% (v/v) P20, 5% DMSO, read-out: Solubility Lower Limit Range
Description: Lower limits of aqueous compound solubility were determined in a nepholometer in phosphate-buffered saline containing 0.005% (v/v) P20 and a final concentration of 5% DMSO. Briefly, compounds were initially dissolved in DMSO as a 10 mM stock solution and diluted to 1 mM and 0.5 mM working solutions with neat DMSO. The compounds were then titrated in DMSO and a constant volume of DMSO stock added to filtered PBS/P20 solution so that the final DMSO concentration was 5%. […]

# compound, solubility
data = [
    ("O=C(O)CCSCC(=O)c1ccc2[nH]c(=O)[nH]c2c1 [Compound 4]", "> 140 µg/mL"),
    ("O=C(O)CSCC(=O)c1ccc2[nH]c(=O)[nH]c2c1 [Compound 6]", "67 to 250 µg/mL"),
    ("O=C(CSCCCCCCO)c1ccc2[nH]c(=O)oc2c1 [Compound 15]", "77 to 250 µg/mL"),
    ("COC(=O)CCSCC(=O)c1ccc2c(c1)CC(=O)N2 [Compound 1]", "18 to 63 µg/mL"),
    ("O=C(O)CCSCC(=O)c1ccc2[nH]c(=O)oc2c1 [Compound 14]", "> 140 µg/mL"),
]

---

Target: Recombinant human MIF protein (Homo sapiens, UniProt P14174)
Sequence (P14174 2-115 limits assumed): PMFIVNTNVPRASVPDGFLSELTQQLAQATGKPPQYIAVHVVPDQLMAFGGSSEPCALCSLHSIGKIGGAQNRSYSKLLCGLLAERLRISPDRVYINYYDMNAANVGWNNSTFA
Experiment: Inhibition of MIF tautisomerase activity (L-dopachrome)
Type: biochemical
Details: 50 uM compound, mean±standard deviation of 2-4 experiments

# compound, inhibition at 50 µM (%)
measured = [
    ("Cn1c(=O)sc2cc(C(=O)CSCCC(=O)O)c(Cl)cc21 [Compound 32]", 4),
    ("CCCCSCC(=O)c1ccc2[nH]c(=O)sc2c1 [Compound 19]", 9),
    ("Cn1c(=O)n(C)c2cc(C(=O)CSCCC(=O)O)c(Cl)cc21 [Compound 28]", 12),
    ("CCCCSCC(=O)c1cc2sc(=O)n(C)c2cc1Cl [Compound 31]", 2),
    ("Cn1c(=O)n(C)c2cc(C(=O)CSCCC(=O)O)ccc21 [Compound 23]", 0),
]

---

Target: Recombinant human MIF protein (Homo sapiens, UniProt P14174)
Experiment: Inhibition of MIF tautisomerase activity (L-dopachrome)
Format: biochemical
Conditions: 100 uM compound, mean±standard deviation of 2-4 experiments

# structure_notation, inhibition at 100 µM
data = [
    ("CCCCSCC(=O)c1cc2sc(=O)[nH]c2cc1Cl", "42%"),
    ("Cn1c(=O)sc2cc(C(=O)CSCCC(=O)O)c(Cl)cc21", "11%"),
    ("CCCCSCC(=O)c1cc2[nH]c(=O)[nH]c2cc1Cl", "12%"),
]

These measurements were taken from patent US20090130165A1.
